system-under-test: hM4Di (Homo sapiens, UniProt P08173, A203G/Y113C)
Sequence (P08173 1-479 Y113C/A203G): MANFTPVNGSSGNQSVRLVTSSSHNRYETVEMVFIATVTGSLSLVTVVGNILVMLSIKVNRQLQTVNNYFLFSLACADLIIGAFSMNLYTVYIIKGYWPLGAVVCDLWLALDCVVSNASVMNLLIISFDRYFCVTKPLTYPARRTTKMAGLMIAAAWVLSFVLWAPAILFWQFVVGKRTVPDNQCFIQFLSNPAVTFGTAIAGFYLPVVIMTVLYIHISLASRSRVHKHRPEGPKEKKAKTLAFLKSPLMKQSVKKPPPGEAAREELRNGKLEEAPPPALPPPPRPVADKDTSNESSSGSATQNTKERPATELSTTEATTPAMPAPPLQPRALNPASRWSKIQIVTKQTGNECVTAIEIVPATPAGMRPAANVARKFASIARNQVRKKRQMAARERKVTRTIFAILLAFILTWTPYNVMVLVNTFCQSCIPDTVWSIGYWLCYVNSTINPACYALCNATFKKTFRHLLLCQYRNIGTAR
method-summary: [3H]CLZ competition binding, membranes of HEK293 cells transfected with hM4Di
reported-metric: Ki (nM)
Numbers only, in nM.

Request: Reported Ki for CCN1CCN(C2=Nc3cc(Cl)ccc3Nc3c(F)cc(F)cc32)CC1 : what is it?
Result: 18.1

====

system-under-test: hM3Dq (Homo sapiens, UniProt P20309, A239G/Y149C)
Sequence (P20309 whole entry Y149C/A239G): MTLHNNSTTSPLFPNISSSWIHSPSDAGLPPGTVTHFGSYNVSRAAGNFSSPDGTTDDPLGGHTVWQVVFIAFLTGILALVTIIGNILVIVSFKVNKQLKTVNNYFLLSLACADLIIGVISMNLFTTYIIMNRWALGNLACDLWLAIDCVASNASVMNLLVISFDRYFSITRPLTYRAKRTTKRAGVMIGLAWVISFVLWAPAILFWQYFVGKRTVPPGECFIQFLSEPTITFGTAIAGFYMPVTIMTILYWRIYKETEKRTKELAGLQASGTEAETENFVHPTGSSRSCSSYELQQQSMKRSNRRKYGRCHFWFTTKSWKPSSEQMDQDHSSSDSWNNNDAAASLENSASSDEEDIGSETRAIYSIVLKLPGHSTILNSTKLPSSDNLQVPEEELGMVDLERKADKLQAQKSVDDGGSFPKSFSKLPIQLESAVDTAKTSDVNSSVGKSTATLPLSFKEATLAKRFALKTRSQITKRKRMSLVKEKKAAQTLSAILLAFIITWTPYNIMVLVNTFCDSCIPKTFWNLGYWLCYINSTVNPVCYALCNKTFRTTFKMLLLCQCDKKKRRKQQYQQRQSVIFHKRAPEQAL
method-summary: [3H]CLZ competition binding, membranes of HEK293 cells transfected with hM3Dq
reported-metric: pKi
Give bare numbers, as −log10 of the molar value.

Request: Reported pKi for CCN1CCN(C2=Nc3cc(Cl)ccc3Nc3c(F)cc(F)cc32)CC1 : what is it?
Result: 8.09
